Cited source: ChEMBL document CHEMBL5058577

# System: Fibroblast
# assay.procedure: Multiplex assay against human fibroblast
# Format: toxicity, cell-based
# applied.conditions: 24 h, 10 µM, compound concentration 10 uM, replicate 1
readout.type: Population Tubulin-Different-Phenotype (%)

{"columns": ["molecule", "system.tested", "result"],
 "data": [
  ["COC[C@@H](c1ccc(C(F)(F)F)cc1)N1CCN(C2(C)CCN(C(=O)c3c(C)ncnc3C)CC2)C[C@@H]1C.O=C(O)/C=C\\C(=O)O [VICRIVIROC MALEATE]", "Fibroblast", "42%"]
]}

-- ask # get_value(readout= Population Tubulin-Different-Phenotype (%), system= Fibroblast) for O=C(NCCN1CCC(n2c(=O)[nH]c3cc(Cl)ccc32)CC1)c1ccc(F)cc1 [HALOPEMIDE]
-- reply 78%

-- ask # get_value(readout= Population Tubulin-Different-Phenotype (%), system= Fibroblast) for CCCOc1ccc2[nH]cc(C3=CCNCC3)c2n1.Cl
-- reply 36%
